- TESTED_TARGET: integrin αV/β5 receptor (Homo sapiens, UniProt P06756+P18084)
- Sequence (P06756 31-992 limits assumed): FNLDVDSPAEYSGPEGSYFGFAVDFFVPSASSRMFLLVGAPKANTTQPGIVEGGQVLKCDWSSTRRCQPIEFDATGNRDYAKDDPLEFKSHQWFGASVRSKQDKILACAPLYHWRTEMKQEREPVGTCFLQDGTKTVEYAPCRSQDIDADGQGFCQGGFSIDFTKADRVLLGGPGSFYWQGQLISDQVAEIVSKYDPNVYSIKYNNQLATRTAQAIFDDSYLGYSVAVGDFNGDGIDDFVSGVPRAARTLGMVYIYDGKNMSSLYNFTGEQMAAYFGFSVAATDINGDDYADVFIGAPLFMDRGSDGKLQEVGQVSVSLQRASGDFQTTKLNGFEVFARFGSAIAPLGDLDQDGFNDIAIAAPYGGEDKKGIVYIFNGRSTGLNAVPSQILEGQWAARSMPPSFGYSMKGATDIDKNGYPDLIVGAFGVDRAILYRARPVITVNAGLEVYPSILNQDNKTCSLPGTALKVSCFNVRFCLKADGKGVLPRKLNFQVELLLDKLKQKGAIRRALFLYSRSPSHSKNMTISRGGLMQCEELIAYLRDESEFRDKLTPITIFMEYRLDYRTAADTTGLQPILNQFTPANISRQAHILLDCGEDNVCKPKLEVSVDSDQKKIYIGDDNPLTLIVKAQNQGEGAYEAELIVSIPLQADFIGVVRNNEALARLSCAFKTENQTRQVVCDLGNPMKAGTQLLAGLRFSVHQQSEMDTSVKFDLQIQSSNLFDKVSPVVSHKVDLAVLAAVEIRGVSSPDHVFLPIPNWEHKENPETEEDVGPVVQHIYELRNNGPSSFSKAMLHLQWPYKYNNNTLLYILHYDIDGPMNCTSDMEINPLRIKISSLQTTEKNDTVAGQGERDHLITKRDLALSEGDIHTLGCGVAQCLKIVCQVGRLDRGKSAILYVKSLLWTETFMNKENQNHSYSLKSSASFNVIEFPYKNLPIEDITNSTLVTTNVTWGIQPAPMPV
- Sequence (P18084 24-719 limits assumed): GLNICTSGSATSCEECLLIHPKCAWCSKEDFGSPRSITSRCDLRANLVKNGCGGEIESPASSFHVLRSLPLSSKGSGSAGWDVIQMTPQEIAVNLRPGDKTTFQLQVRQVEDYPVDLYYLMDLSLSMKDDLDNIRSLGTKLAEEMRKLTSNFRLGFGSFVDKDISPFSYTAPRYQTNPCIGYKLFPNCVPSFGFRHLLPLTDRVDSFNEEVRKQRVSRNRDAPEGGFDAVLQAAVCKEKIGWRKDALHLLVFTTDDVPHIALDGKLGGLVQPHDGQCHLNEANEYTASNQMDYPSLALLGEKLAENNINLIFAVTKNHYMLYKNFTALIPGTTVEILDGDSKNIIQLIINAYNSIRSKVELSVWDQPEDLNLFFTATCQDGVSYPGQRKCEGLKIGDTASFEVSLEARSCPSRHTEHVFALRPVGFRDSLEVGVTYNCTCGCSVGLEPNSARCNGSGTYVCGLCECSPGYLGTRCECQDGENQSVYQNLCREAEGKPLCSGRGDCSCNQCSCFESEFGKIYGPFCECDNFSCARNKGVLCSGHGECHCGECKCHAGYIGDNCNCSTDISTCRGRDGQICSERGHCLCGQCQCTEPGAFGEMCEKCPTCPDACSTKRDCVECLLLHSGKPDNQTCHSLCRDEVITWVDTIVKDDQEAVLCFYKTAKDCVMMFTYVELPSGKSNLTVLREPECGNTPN
- ASSAY_COMMENT: SPOT peptide microarray (μSPOT) binding assay
- EXPERIMENTAL_CONTEXT: His-tag integrin αV/β5 2.5 nM, semi-quantitative
READOUT: relative integrin αV/β5 binding in 15-mer peptide library screening

- SUBSTANCE: "SEQ ID NO: 95: C-terminal 15-mer of RUCILP1, residues 74-88, ESAKSEKVEFTTVKK (Ruminococcus torques)"
  RECORDED_RESULT: "relatively high affinity"
- SUBSTANCE: "SEQ ID NO: 183: 19-mer binding epitope of RUCILP2, residues 12-30, ETSAKASWKNAADGKEAAG (Alanine scanning sequence; (1)..(19) Alanine scanning sequence of RUCILP1)"
  RECORDED_RESULT: "binding epitopes"
- SUBSTANCE: "SEQ ID NO: 168: C-terminal 15-mer of RUCILP2, residues 73-87, NESVKSEKVTFKTLK (Ruminococcus torques)"
  RECORDED_RESULT: "relatively high affinity"
- SUBSTANCE: "SEQ ID NO: 169: 19-mer binding epitope of RUCILP1, residues 12-30, ETSAKVSWKNAADGKEAAG (Ruminococcus torques)"
  RECORDED_RESULT: "binding epitopes"
